Every entry's value here was drawn from patent US20090311283A1.

# Measured Target: HLA-A*03 (human)
# Measurement Notes: competitive inhibition of 125I-labelled probe peptide binding to purified HLA, gel filtration
# Condition Summary: remark: other sources report otherwise
Measured Attribute: IC50 (nM)
Kindly answer with a numeric value in nM, unit omitted.

In: Quick one: IC50 of ILRGTSFVY (modifications not checked) [HBV POL 771 peptide 1.0205 (…)] ?
Out: 250
